# assay_protocol: Inhibition of HCV NS5B RNA-dependent RNA polymerase assessed as inhibition of [3H]CTP incorporation using HCV 5'-untranslated region RNA template incubated for 2 hrs
# Set-up: species or system Hepacivirus hominis
assay_readout: IC50 (µM)
Just the number please, in µM, no unit attached.

[in] Endpoint output: IC50 of NC(=O)c1nccc([C@@H]2O[C@H](COP(=O)(O)OP(=O)(O)OP(=O)(O)O)[C@@H](O)[C@H]2O)c1F . Value?
[out] 5.3

---

# assay_protocol: Inhibition of human rhinovirus 16 RNA-dependent RNA polymerase assessed as inhibition of [3H]UTP incorporation using HCV 5'-untranslated region RNA template incubated for 2.5 hrs by radiometric assay
# Set-up: species or system rhinovirus A16
assay_readout: IC50 (µM)
Give the value in µM but do not write µM after it.

[in] Tell me the measured IC50 of NC(=O)c1nccc([C@@H]2O[C@H](COP(=O)(O)OP(=O)(O)OP(=O)(O)O)[C@@H](O)[C@H]2O)c1F , please.
[out] 4

---

Listing: CC50 at 10 min of selected molecules
# assay_protocol: Cytotoxicity against MDCK cells after 10 mins by CellTiter-Glo assay
# Format: cell-based, Canis lupus familiaris
# measurement_context: dog
Your answer is read as µM, so omit the unit and give the number.

A selection of reference data follows.
C#Cc1c([C@@H]2O[C@H](CO)[C@@H](O)[C@H]2O)ccnc1C(N)=O	98
NC(=O)c1nccc([C@@H]2O[C@](F)(CO)[C@@H](O)[C@H]2O)c1F	185

[in] Recorded CC50 at 10 min for NC(=O)c1nccc([C@@H]2O[C@H](CO)[C@@H](O)[C@H]2O)c1O , please?
[out] 2

[in] # iterate: Cn1cc([C@@H]2O[C@H](CO)[C@@H](O)[C@H]2O)c(=O)c(C(N)=O)n1
[out] 291

---

Catalogue of CC50 at 10 min readings, one per entry.
# assay_protocol: Cytotoxicity against MDCK cells after 10 mins by CellTiter-Glo assay
# Assay type: cell-based, Canis lupus familiaris
# measurement_context: dog

NC(=O)c1nc(F)cn([C@@H]2O[C@H](CO)[C@@H](O)[C@H]2O)c1=O	> 400 µM
NC(=O)c1nc(F)cnc1O [FAVIPIRAVIR]	> 400 µM
NC(=O)c1nccc([C@@H]2O[C@H](CO)[C@@H](O)[C@H]2O)c1F	> 400 µM

[in] Fill blank: measured CC50 at 10 min of the compound COc1c(C(N)=O)ccnc1[C@@H]1O[C@H](CO)[C@@H](O)[C@H]1O is ____.
[out] 207 µM

[in] Further, for NC(=O)c1nccc([C@@H]2O[C@H](CO)[C@@H](O)[C@H]2O)n1 ?
[out] > 200 µM

[in] Param item: CC(C)(C)C(=O)OCOP(=O)(OCOC(=O)C(C)(C)C)OC[C@H]1O[C@@H](c2ccnc(C(N)=O)c2F)[C@H](O)[C@@H]1O
[out] > 400 µM

[in] Try this compound too: NC(=O)c1nccc([C@@H]2O[C@H](CO)[C@@H](O)[C@H]2F)c1F
[out] 306 µM

[in] Ok, now C=Cc1c([C@@H]2O[C@H](CO)[C@@H](O)[C@H]2O)ccnc1C(N)=O
[out] 152 µM
